- Target Under Test: hMCHR1 (Homo sapiens, UniProt Q99705)
- Sequence (Q99705 whole entry): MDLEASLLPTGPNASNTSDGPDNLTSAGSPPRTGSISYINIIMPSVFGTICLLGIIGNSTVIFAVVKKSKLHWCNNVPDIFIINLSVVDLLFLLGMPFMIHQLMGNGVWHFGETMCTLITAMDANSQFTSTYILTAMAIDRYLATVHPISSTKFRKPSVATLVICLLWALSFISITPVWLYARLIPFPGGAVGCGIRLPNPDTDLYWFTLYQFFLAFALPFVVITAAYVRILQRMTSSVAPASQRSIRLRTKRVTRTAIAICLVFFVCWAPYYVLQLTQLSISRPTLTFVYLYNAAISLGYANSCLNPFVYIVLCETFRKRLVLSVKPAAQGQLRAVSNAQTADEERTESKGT
- Test Summary: MCHR1 pIC50 determination FLIPR assay (calcium response to MCH challenge)
- Condition Details: HEK293 cells stably transfected with hMCHR1; MCH challenge at 4XEC50
Readout: IC50 (nM)
// units = nM; emit number, no label

Request: Provide only the value of recorded IC50 for O=c1cc(OCc2ccc(Cl)cn2)ccn1-c1ccc(N2CC3CONC3C2)nc1 (centres unmarked)
Response: 56

Request: Provide only the value of recorded IC50 for CNC1C2CN(c3ccc(-n4ccc(OCc5ccc(Cl)cn5)cc4=O)cn3)CC21 (centres unmarked)
Response: 45
